# TARGET SYSTEM: Rac GTPase-activating protein 1 (Homo sapiens) (UniProt Q9H0H5)
# Sequence (Q9H0H5 whole entry, looked up): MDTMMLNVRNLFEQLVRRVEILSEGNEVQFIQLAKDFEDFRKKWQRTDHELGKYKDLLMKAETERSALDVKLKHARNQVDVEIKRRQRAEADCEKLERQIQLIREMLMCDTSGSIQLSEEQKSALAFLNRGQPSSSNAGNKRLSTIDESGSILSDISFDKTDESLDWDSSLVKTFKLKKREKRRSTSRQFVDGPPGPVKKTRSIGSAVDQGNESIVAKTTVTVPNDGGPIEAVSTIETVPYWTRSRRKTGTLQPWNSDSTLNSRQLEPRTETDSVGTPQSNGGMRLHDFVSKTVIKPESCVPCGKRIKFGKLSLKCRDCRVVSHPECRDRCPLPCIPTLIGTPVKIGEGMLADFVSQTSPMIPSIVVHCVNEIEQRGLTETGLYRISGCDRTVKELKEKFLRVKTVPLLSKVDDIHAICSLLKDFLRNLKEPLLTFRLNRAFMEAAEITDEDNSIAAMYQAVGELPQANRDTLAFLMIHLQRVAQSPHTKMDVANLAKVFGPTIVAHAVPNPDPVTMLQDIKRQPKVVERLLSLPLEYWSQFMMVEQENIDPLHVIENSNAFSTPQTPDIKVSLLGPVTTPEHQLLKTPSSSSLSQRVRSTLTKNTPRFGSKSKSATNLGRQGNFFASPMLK
# ASSAY PROTOCOL: blockers of MgcRacGAP-driven Rac1 GTP hydrolysis – biochemical, ADP Hunter fluorescence, primary and confirmatory, confirmation (AID 624330);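 also: fluorescence reports GDP produced by GAP-driven GTP hydrolysis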
# RUN PARAMETERS: MgcRacGAP-stimulated Rac1 GTP hydrolysis, at 30 µM, stronger effect = higher value, GST-tagged Rac1 F28L mutant substrate
Screen size: about 340,000 compounds; about 2,100 (0.62%) were called active. The list is a sample of the results. Potency and affinity values are given separately.
Kind request: treat 10% as inclusive, so inhibition at 10% or higher is Fulfilled, anything lower is Not fulfilled.

Some solved cases for reference:
Exercise: Please indicate if the recorded inhibition for O=c1[nH]n(-c2ccccc2Cl)c(=O)c2ccccc12 meets or exceeds 10%.
Solution: Not fulfilled

Exercise: Please indicate if the recorded inhibition for CC(=O)Nc1ccc(-n2c(=O)c3ccccc3c3ccccc3c2=O)cc1 meets or exceeds 10%.
Solution: Not fulfilled

Exercise: Please indicate if the recorded inhibition for O=c1oc2ccc(Cl)cc2nc1/C=C(\O)c1ccco1 meets or exceeds 10%.
Solution: Fulfilled

Exercise: Please indicate if the recorded inhibition for O=C(c1ccccc1F)N1CCN(CC2CC3C=CC2C3)CC1 (configuration not stated) meets or exceeds 10%.
Solution: Fulfilled

Exercise: Please indicate if the recorded inhibition for COc1ccc(Oc2c(Cl)cnn(-c3ccc(F)cc3)c2=O)cc1 meets or exceeds 10%.
Solution: Not fulfilled

***
Exercise: Please indicate if the recorded inhibition for O=C(CCC1CCCC1)N1CCN(C(=O)C2CC2)CC1 meets or exceeds 10%.
Solution: Not fulfilled

Exercise: Please indicate if the recorded inhibition for O=c1nc(-c2ccccc2Cl)c2cc(F)ccc2[nH]1 meets or exceeds 10%.
Solution: Not fulfilled

Exercise: Please indicate if the recorded inhibition for O=C(COC(=O)c1ccc(Cl)c(S(=O)(=O)N2CCCCC2)c1)NCc1ccco1 meets or exceeds 10%.
Solution: Not fulfilled

Exercise: Please indicate if the recorded inhibition for Cc1ccc(Cn2ccc(NC(=O)c3noc4c3CCCC4)n2)cc1 meets or exceeds 10%.
Solution: Not fulfilled

Exercise: Please indicate if the recorded inhibition for C1=CC2CC1CC2CN1CCN(c2ccccc2)CC1 (configuration not stated) meets or exceeds 10%.
Solution: Fulfilled

Exercise: Please indicate if the recorded inhibition for Cc1ccc2oc(=O)c(/C=C(\O)c3ccco3)nc2c1 meets or exceeds 10%.
Solution: Fulfilled

Exercise: Please indicate if the recorded inhibition for N#Cc1ccc2c(=O)n(-c3ccccc3)sc2c1 meets or exceeds 10%.
Solution: Fulfilled
